test: label from the status in PepcDB records
propertyName: protein production

inputSequence	propertyName	value
MGEAATKSDRQQNQTRLWLNILRLHGLVFGDLNRQLLDETGLSLAKFDAMAQLARNPDGLSMGKLSGALKVTNGNVSGLVNRLIKDGMVVKAMSADDRRSFSAKLTDAGLTTFKQASEAHNRILAELLRAVSDQDMVEASAALRGILESMQTGASLD	protein production	not failed
MEVKEVELELSSEATFLSKTSIGEITAGEKGLNPMELLLVSIGSCSGVDVYHILKKKRQEVKDIKIFLKGKRREKHPKIYEEIEIKYVAVGKVEEKALEQAVKLSTEKYCSVLAMVKPSTNLKISWEVKWEE	protein production	not failed
MILGIDIGGANTKITELHENGEFKVHHLYFPMWKNNDKLAEVLKTYSKDISHVALVTTAELADSYETKKEGVDNILNAAESAFGSNISVFDSDGNFISLEGAKTNYMKVSASNWCGTAKWVSKNIEENCILVDMGSTTTDIIPIVDGKVVAEKTDLERLMNHELLYVGTLRTPISHLGNTILFKGVNTNVSSEYFAITADISVVLEKVTTEEYTCDTPDGKGTDKRSSLVRISKVLCSDLDQISEIDAENIAKTYYELWKELILENVKKVAEKYGSKKVVITGIGENILKDALGDFEVISVAERYGKDVSLATPSFAVAELLKNELLEHHHHHH	protein production	not failed
MIKFYQYKNCTTCKKAAKFLDEYGVSYEPIDIVQHTPTINEFKTIIANTGVEINKLFNTHGAKYRELDLKNKLQTLSDDEKLELLSSDGMLVKRPLAVMGDKITLGFKEDQYKETW	protein production	not failed
ELPSVEELTIILPEDIELKPLGMVSSIIEQLVIIESMTNLPPVNEETVIFKSDRQAAGKIFEIFGPVAHPFYVLRFNSSDHIESKGIKIKETMYFA	protein production	not failed
MITTKLKLSVTNDYLLRINENRYVLIDTGYKEDWKLFLKRLKENGIKINEISYVILTHHHDDHVGFLNKLVSENKDIRVVMSDKTNELIKVGENDQTHGGGLINKRIEFLIRYKNMYVSKVLGVKKENNLKFPPYESRNNDIIFTGEVTLRELGIDLPGKIIETPGHTIDSISILFEDGDCFVGDAAANMLKLCGTKNCVIFIMDKKQYYESWDKMIKVGVKKVYPAHGGEFSVGRLKKNIWRNL	protein production	failed
MDNITFPSQGSLSSSNQTFDSQSAARNSNAPPEYVNQGLLLWNQTRERWVGKDKPNNPVDHNQGAKLNWNTATYDSLLGSNKLFPQPIPLTEMVDFLVDIWEQEGLYD	protein production	failed

Attention now shifts to the item below.
Can you share its protein production? I mean this sequence: DSFKNLENKYDGKIGIYTLNTDDKTNIKYNESYHFPICSVFKFLLVGAILDYDMHNQGFLDKKIPINQDDIGKLGYAPITAKNVGKTLTISQLNYAAILSDSPASNILVRELGGLQNLNKFIKKLGDNDTIITADEPEINYTQPHSNINKTTPKAITKDIYKLAFGNILDKKHKDIFIKYLQDNNTGANRIAFSMPKDWIIGDKTGTCGQYAATNDVAIIWPKNQQPIALGILYTNPNDKNAPSNEEIIQQAAKLIANDLTNTYK
not failed

###

assay: label from the status in PepcDB records
propertyName: protein production

inputSequence	value
MATRNALRIVSRRFSSGKVLSEEERAAENVFIKKMEQEKLQKLARQGPGEQAAGSASEAKVAGATASASAESGPKVSEDKNRNYAVVAGVVAIVGSIGWYLKAGGKKQPEVQE	failed
MNGHAFFFAGVRLTALPSGALWWPAERLLCVSDLHLGKAERLARRGGTLLPPYETQATLARLEADLEATGAERVLCLGDSFDDGAAADGLAEPERLWLRRLMTGRDWIWILGNHD	failed
MKLKNILIVVDNIEESIHFYNELFGLNVISRQEGNVIMSEGLVLQDAGIWKESMQIQTIPYNNMTELYFEDNDIEGVVKKLESGRYEVRYATALTELDGGQKLVRFYDQSGNLIEVRTPWDKFVNRE	failed
